Readings of IC50 CD23 for the listed binders
Target: recombinant human IL-13 (human, UniProt P35225 35-146)
Sequence (P35225 35-146 limits assumed): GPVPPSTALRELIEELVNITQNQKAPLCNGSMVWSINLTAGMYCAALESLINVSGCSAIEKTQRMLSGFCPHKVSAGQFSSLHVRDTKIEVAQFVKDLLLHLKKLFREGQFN
Assay: cell-based or functional assay
Quantity Name: IC50 CD23 (nM)

BDG38.074 (antibody, V domains shown, also called BDG38.74) VH: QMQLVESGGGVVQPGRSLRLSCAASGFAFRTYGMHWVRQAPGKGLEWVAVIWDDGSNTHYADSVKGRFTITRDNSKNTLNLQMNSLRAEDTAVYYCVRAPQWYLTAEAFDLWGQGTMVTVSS VL: SYVLTQPPSVSVAPGQTATITCGGNMIGAYLVHWYQQKPGQAPLLVVYDDVDRPNRIPERFSGSNSGNTATLTISRVEAGDEADYYCQVWDHNTDKMVFGGGTKLTVL | 0.158
BDG38.076 (antibody, V domains shown, IgG1) VH: QMQLVESGGGVVQPGRSLRLSCAASGFAFRTYGMHWVRQAPGKGLEWVAVIWDDGSATHYADSVKGRFTITRDNSKNTLNLQMNSLRAEDTAVYYCVRAPQWYLTAEAFDLWGQGTMVTVSS VL: SYVLTQPPSVSVAPGETASITCGGNMIGGYLVHWYQQKPGQAPLLVIYDDVDRPARIPERFSGSNSGNTATLTISRVEAGDEADYYCQVWDHDTNHMVFGGGTKLTVL | 0.308
BDG38.131 (antibody, V domains shown, IgG1) VH: QMQLVESGGGVVQPGRSLTLSCAASGFEFRTYGMHWVRQAPGKGLEWVAVIWDDGSNTHYADSVKGRFTITRDNSKNTLNLQMNSLRAEDTAVYYCVRAPQWYLTAEAFDLWGQGTMVTVSS VL: SYILTQPPSVSVAPGETATITCGGNLIGAKLVHWYQQKPGQAPVLVIYDDSDRPSRIPERFSGSNIGNTATLTISDVEEGDEADYYCQVWDYYSNTMVFGGGTKLTVL | 0.07
